Test system: CD4+ T cells
ASSAY DETAILS: exogenous autologous normal donor restimulation assay, TNFα/IFNγ double positive CD4+ T cells by flow cytometry
Type: cell-based, human
TEST PARAMETERS: maximum CD4+ T-cell response (TNFα and IFNγ), donor independent; peptide pool 10 μg/mL; healthy donors
Tag: y if measured Fold change (CD4+) vs. DMSO is not below 10 fold, n if it is.

Identify whether the reported Fold change (CD4+) vs. DMSO of the following sequence is 10 fold or greater: SMMEGVIQLSFKAIVCLLSCLDLLSLFRVVRHLS [AS94, neoantigen, alternative splicing of AFDN]
y

Given RLDDSGIGNFITSLLNFISKFFCSFMGA [AS99, neoantigen, alternative splicing of FAM221A] , state whether its Fold change (CD4+) vs. DMSO is at least 10 fold.
n

API: above_or_equal(metric=Fold change (CD4+) vs. DMSO, cutoff=10 fold) for item KLCSRQRPDCQPVDSRHGPILSIQHLISALHTGDG [AS123, neoantigen, alternative splicing of VWA2]
n

Textbook exercise: given the entry QHLQQEACVTSAGKQS [AS19, neoantigen, alternative splicing of PLEKHG4B] , state whether its Fold change (CD4+) vs. DMSO is greater than or equal to 10 fold.
n

Is Fold change (CD4+) vs. DMSO at least 10 fold? Consider MHRKLQARSPSLCTGHPPQAA [AS75, neoantigen, alternative splicing of TSPAN10]
n

Say whether SGCRLTLLSLSPVSSLGCPVPMP [AS107, neoantigen, alternative splicing of MUC16] shows Fold change (CD4+) vs. DMSO of 10 fold or more.
y

Is it the case that PGHGAICREEV [AS62, neoantigen, alternative splicing of IMPG2] has Fold change (CD4+) vs. DMSO reaching or exceeding 10 fold?
y
